experiment: clinical; conditions: human, in vivo, AT2221 Cmax
metric: Cmax

[
  {
    "molecule": "CCCCN1C[C@H](O)[C@@H](O)[C@H](O)[C@H]1CO [miglustat, reference compound]",
    "endpoint value": "1800 to 3130 ng/mL"
  }
]

----------
assay: clinical; conditions: human, in vivo, AT2221 AUC

[
  {
    "molecule": "CCCCN1C[C@H](O)[C@@H](O)[C@H](O)[C@H]1CO [miglustat, reference compound]",
    "AUC": "16100 to 24600 ng·h/mL"
  }
]
